So I've got a bunch of compounds here, and I need their IC50 values.
# assay_target: recombinant perforin (Mus musculus, UniProt P10820)
# Sequence (P10820 21-554): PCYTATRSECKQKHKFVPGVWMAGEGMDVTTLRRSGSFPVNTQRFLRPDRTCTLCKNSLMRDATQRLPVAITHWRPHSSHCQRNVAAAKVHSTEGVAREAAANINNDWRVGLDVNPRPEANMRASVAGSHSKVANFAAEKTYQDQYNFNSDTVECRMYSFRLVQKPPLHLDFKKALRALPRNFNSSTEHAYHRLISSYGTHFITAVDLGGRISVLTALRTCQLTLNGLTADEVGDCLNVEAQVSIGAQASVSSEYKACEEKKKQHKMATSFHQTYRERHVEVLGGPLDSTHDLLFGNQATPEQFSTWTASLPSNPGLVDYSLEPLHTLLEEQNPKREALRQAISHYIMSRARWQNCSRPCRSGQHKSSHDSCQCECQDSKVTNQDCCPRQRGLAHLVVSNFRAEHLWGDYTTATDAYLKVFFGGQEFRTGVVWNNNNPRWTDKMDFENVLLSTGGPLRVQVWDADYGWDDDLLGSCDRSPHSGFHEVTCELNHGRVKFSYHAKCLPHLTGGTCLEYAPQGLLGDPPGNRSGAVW
# experiment_summary: Inhibition of perforin-mediated lysis of Jurkat cells (51Cr release)
# Format: cell-based
# protocol_conditions: read-out: Inhibition of Jurkat cell lysis IC50; recombinant perforin, 0.1% BSA, 51Cr release, 4 h; average of at least two determinations
Number in µM, nothing else.

Q: Record request: IC50 value, item CN1C(=O)Cc2cc(-c3ccc(-c4cncc(NS(=O)(=O)c5ccc(F)cc5F)c4)s3)ccc21
Ans: 10.3

Q: Record request: IC50 value, item CN1Cc2ccc(-c3ccc(-c4cncc(NS(=O)(=O)c5ccc(F)cc5F)c4)s3)cc2C1=O
Ans: 10.4

Q: Record request: IC50 value, item CN1Cc2cc(-c3ccc(-c4cncc(NS(=O)(=O)c5ccc(F)cc5F)c4)nc3)ccc2C1=O
Ans: 8.17

Q: Record request: IC50 value, item Cn1ccc2cc(-c3ccc(-c4cncc(NS(=O)(=O)c5ccc(F)cc5F)c4)s3)ccc21
Ans: 7.58

Q: Record request: IC50 value, item O=C1NCc2ccc(-c3ccc(-c4cncc(NS(=O)(=O)c5ccc(F)cc5F)c4)s3)cc21
Ans: 4.15

Q: Record request: IC50 value, item CN1Cc2cc(-c3ncc(-c4cncc(NS(=O)(=O)c5ccc(F)cc5F)c4)s3)ccc2C1=O
Ans: 17.1

Q: Record request: IC50 value, item O=C1Cc2cc(-c3ccc(-c4cncc(NS(=O)(=O)c5ccc(F)cc5F)c4)s3)ccc2N1
Ans: 5.18

Q: Record request: IC50 value, item CC(=O)c1cn(C)c2ccc(-c3ccc(-c4cncc(NS(=O)(=O)c5ccc(F)cc5F)c4)s3)cc12
Ans: 11.2
